Test: Pharmacokinetics of probe substrates in rats with or without poziotinib pre-treatment
Measurement Parameters: male, Sprague-Dawley, rat, plasma, po, 10 mg/kg, CLz/F, Control group: oral probe cocktail only (10 mg/kg; tolbutamide 1 mg/kg), rats, n = 6

[
  {
    "Compound": "CCOc1ccc(NC(C)=O)cc1 [Phenacetin]",
    "CL/F": "30.7 mL/min/kg"
  },
  {
    "Compound": "CC(NC(C)(C)C)C(=O)c1cccc(Cl)c1 (centres unmarked) [Bupropion]",
    "CL/F": "412 mL/min/kg"
  }
]

----------
Test: in vivo
Measurement Parameters: male, Sprague-Dawley, rat, in vivo, po, 10 mg/kg, AUC(0–∞)
Method: Samples were analyzed by a UPLC-MS/MS system equipped with a triple quadrupole mass spectrometer (Waters Corp., Milford, MA, United States) and Acquity UPLC BEH C18 column (1.7 μm, 2.1 × 50 mm) at 40°C. The mobile phase consisted of acetonitrile (A) and 0.1% formic acid (B) with a linear gradient elution at 0.4 ml/min for 3 min. […] Pharmacokinetic parameters were calculated using DAS software (Version 3.2.8). […]
Test Readout: AUC(0-inf) (ng·h/mL)

[
  {
    "Molecule": "CC(NC(C)(C)C)C(=O)c1cccc(Cl)c1 (stereo not shown)",
    "Quantitative Result": 613
  }
]

----------
Test: Pharmacokinetics of probe substrates in rats with or without poziotinib pre-treatment
Measurement Parameters: male, Sprague-Dawley, rat, in vivo, po, CLz/F, Control group: oral probe cocktail only (10 mg/kg; tolbutamide 1 mg/kg), rats, n = 6

[
  {
    "Molecule": "COc1ccc2c(c1)[C@]13CCCC[C@@H]1[C@H](C2)N(C)CC3 [Dextromethorphan]",
    "CL/F [mL/min/kg]": 289
  }
]

----------
Test: Pharmacokinetics of probe substrates in rats with or without poziotinib pre-treatment
Measurement Parameters: male, Sprague-Dawley, rat, plasma, po, Cmax, Control group: oral probe cocktail only (10 mg/kg; tolbutamide 1 mg/kg), rats, n = 6

[
  {
    "Compound": "CCCCNC(=O)NS(=O)(=O)c1ccc(C)cc1 [Tolbutamide]",
    "Cmax, ng/mL": 3700
  }
]

----------
Test: in vivo
Measurement Parameters: male, Sprague-Dawley, rat, in vivo, po, 10 mg/kg, MRT(0–t)
Readings of MRT last for the listed molecules

[
  {
    "Molecule": "CCOc1ccc(NC(C)=O)cc1",
    "MRT last / h": 1.41
  },
  {
    "Molecule": "CC(NC(C)(C)C)C(=O)c1cccc(Cl)c1 (centres unmarked)",
    "MRT last / h": 3.33
  }
]

----------
Test: Pharmacokinetics of probe substrates in rats with or without poziotinib pre-treatment
Measurement Parameters: male, Sprague-Dawley, rat, plasma, po, Vz/F, Treated group: oral probe cocktail (10 mg/kg; tolbutamide 1 mg/kg) after 7 days oral poziotinib 5 mg/kg, rats, n = 6
Description: Samples were analyzed by a UPLC-MS/MS system equipped with a triple quadrupole mass spectrometer (Waters Corp., Milford, MA, United States) and Acquity UPLC BEH C18 column (1.7 μm, 2.1 × 50 mm) at 40°C. The mobile phase consisted of acetonitrile (A) and 0.1% formic acid (B) with a linear gradient elution at 0.4 ml/min for 3 min. […] Pharmacokinetic parameters were calculated using DAS software (Version 3.2.8). […]
Test Readout: Vd/F (L/kg)

[
  {
    "Compound": "CCCCNC(=O)NS(=O)(=O)c1ccc(C)cc1 [Tolbutamide]",
    "Test Readout": "Vd/F",
    "Quantitative Result": 0.25
  }
]

----------
Test: Pharmacokinetics of probe substrates in rats with or without poziotinib pre-treatment
Measurement Parameters: male, Sprague-Dawley, rat, in vivo, po, 10 mg/kg, AUC(0–t), Control group: oral probe cocktail only (10 mg/kg; tolbutamide 1 mg/kg), rats, n = 6
Procedure: Samples were analyzed by a UPLC-MS/MS system equipped with a triple quadrupole mass spectrometer (Waters Corp., Milford, MA, United States) and Acquity UPLC BEH C18 column (1.7 μm, 2.1 × 50 mm) at 40°C. The mobile phase consisted of acetonitrile (A) and 0.1% formic acid (B) with a linear gradient elution at 0.4 ml/min for 3 min. […] Pharmacokinetic parameters were calculated using DAS software (Version 3.2.8). […]

[
  {
    "Molecule": "Cc1ncc2n1-c1ccc(Cl)cc1C(c1ccccc1F)=NC2 [Midazolam]",
    "AUC(0-t) / ng·h/mL": 1350
  }
]

----------
Test: Pharmacokinetics of probe substrates in rats with or without poziotinib pre-treatment
Measurement Parameters: male, Sprague-Dawley, rat, in vivo, po, t1/2z, Treated group: oral probe cocktail (10 mg/kg; tolbutamide 1 mg/kg) after 7 days oral poziotinib 5 mg/kg, rats, n = 6

[
  {
    "Record Smiles": "COc1ccc2c(c1)[C@]13CCCC[C@@H]1[C@H](C2)N(C)CC3",
    "half-life [h]": 3.72
  }
]

----------
Test: Pharmacokinetics of probe substrates in rats with or without poziotinib pre-treatment
Measurement Parameters: male, Sprague-Dawley, rat, in vivo, po, 10 mg/kg, Cmax, Control group: oral probe cocktail only (10 mg/kg; tolbutamide 1 mg/kg), rats, n = 6

[
  {
    "Record Smiles": "Cc1ncc2n1-c1ccc(Cl)cc1C(c1ccccc1F)=NC2",
    "Units Symbol": "ng/mL",
    "Cmax": 868
  }
]

----------
Test: Pharmacokinetics of probe substrates in rats with or without poziotinib pre-treatment
Measurement Parameters: male, Sprague-Dawley, rat, in vivo, po, CLz/F, Treated group: oral probe cocktail (10 mg/kg; tolbutamide 1 mg/kg) after 7 days oral poziotinib 5 mg/kg, rats, n = 6
Test Readout: CL/F (mL/min/kg)

[
  {
    "Compound": "COc1ccc2c(c1)[C@]13CCCC[C@@H]1[C@H](C2)N(C)CC3 [Dextromethorphan]",
    "Quantitative Result": 250
  }
]

----------
Test: Pharmacokinetics of probe substrates in rats with or without poziotinib pre-treatment
Measurement Parameters: male, Sprague-Dawley, rat, in vivo, po, MRT(0–t), Treated group: oral probe cocktail (10 mg/kg; tolbutamide 1 mg/kg) after 7 days oral poziotinib 5 mg/kg, rats, n = 6
Test Readout: MRT last (h)

[
  {
    "Record Smiles": "COc1ccc2c(c1)[C@]13CCCC[C@@H]1[C@H](C2)N(C)CC3",
    "Quantitative Result": 3.54
  }
]

----------
Test: Pharmacokinetics of probe substrates in rats with or without poziotinib pre-treatment
Measurement Parameters: male, Sprague-Dawley, rat, plasma, po, 10 mg/kg, CLz/F, Treated group: oral probe cocktail (10 mg/kg; tolbutamide 1 mg/kg) after 7 days oral poziotinib 5 mg/kg, rats, n = 6
Readings of CL/F for the listed compounds
Test Readout: CL/F (L/h/kg)

[
  {
    "Compound": "CC(NC(C)(C)C)C(=O)c1cccc(Cl)c1 (centres unmarked)",
    "Quantitative Result": 16.9
  },
  {
    "Compound": "CCOc1ccc(NC(C)=O)cc1",
    "Quantitative Result": 3.99
  }
]

----------
Target Desc: cyp2b1 (Rattus norvegicus)
Sequence (P00176 1-491): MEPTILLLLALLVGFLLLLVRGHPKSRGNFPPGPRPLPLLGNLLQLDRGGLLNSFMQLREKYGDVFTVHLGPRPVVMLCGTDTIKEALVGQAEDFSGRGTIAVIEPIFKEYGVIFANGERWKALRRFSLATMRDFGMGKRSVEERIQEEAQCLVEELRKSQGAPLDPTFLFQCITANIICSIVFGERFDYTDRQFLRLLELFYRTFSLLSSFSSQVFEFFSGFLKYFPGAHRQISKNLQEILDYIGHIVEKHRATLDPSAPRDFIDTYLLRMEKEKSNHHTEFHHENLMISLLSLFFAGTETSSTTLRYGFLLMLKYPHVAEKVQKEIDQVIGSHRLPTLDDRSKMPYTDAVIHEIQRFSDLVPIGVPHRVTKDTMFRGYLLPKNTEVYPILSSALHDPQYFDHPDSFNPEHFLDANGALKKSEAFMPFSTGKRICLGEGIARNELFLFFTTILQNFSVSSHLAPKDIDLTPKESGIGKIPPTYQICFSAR
Test: Cocktail method IC50 in rat liver microsomes, bupropion probe
Assay type: in vitro ADME
Parameters: from tissue; host or cells: rat liver microsomes, prepared in-house
Measurement Parameters: 20 μM bupropion, cocktail, 30 min, read-out: IC50
Description: The cocktail method was employed to analyze the effects of poziotinib on cyp1a2, cyp2b1, cyp2c11, cyp2d1, cyp2e1, and cyp3a1/2. […] Then half-maximal inhibitory concentration (IC50) of poziotinib was determined with all of the CYPs. […]. To this cocktail, 1 mg/ml of RLMs, 100 mM potassium phosphate buffer (pH 7.4), poziotinib (1, 2.5, 5, 10, 25, 50, or 100 μM) were added to obtain a final volume of 200 μL. […]

[
  {
    "Record Smiles": "C=CC(=O)N1CCC(Oc2cc3c(Nc4ccc(Cl)c(Cl)c4F)ncnc3cc2OC)CC1",
    "IC50 [µM]": 8.79
  }
]
